Data provenance is patent US7906507B2.

Biological target: cloned human GLP-1 receptor (Homo sapiens, UniProt P43220)
Construct: expressed in transfected cells; host or cells: CHO or HEK-293 cells
Sequence (P43220 24-463): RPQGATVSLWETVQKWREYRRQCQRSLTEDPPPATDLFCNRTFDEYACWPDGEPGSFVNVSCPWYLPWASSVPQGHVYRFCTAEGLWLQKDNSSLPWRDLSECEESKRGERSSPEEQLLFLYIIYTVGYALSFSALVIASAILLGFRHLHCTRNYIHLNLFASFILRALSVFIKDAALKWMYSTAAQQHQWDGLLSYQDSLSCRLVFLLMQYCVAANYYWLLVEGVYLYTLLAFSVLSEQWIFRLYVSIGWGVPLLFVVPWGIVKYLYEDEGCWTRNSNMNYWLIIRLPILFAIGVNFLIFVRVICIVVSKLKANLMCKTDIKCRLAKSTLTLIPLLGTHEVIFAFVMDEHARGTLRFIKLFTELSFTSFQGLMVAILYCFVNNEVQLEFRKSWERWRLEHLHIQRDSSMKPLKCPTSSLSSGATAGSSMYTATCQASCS
Assay: Functional cell-based assay: cAMP functional assay
Settings: 0.5 h; percentage relative to maximal GLP-1-induced cAMP accumulation; na = not active in the assay; read-out: % activation
reported.endpoint: Emax (%)
Write the number in % without appending the unit.

Quickly give me recorded Emax for CN(C)C(=O)N1Cc2cc3c(cc2C[C@H]1C(=O)N[C@@H](Cc1ccc(-c2ccc(C#N)cc2)cc1)C(=O)O)NC(=O)C(c1ccc(OCc2ccc(Cl)c(Cl)c2)cc1)O3 (stereo partly shown) 7

Quickly give me recorded Emax for CCC(c1ccccc1)N1Cc2cc3c(cc2C[C@H]1C(=O)N[C@@H](Cc1ccc(-c2ccc(C#N)cc2)cc1)C(=O)O)N(C)C(=O)C(c1ccc(OCc2ccc(Cl)c(Cl)c2)cc1)O3 (stereo partly shown) 6.9

Quickly give me recorded Emax for CC[C@@H](c1ccccc1)N1Cc2cc3c(cc2C[C@H]1C(=O)N[C@@H](Cc1ccc(-c2ccc(F)cc2)cc1)C(=O)O)N(C)C(=O)[C@@H](c1ccc(OCc2ccc(Cl)c(Cl)c2)cc1)O3 30

Quickly give me recorded Emax for CC(C)(C)COC(=O)N1Cc2cc3c(cc2C[C@H]1C(=O)N[C@@H](Cc1ccc(-c2ccc(C#N)cc2)cc1)C(=O)O)NC(=O)C(c1ccc(OCc2ccc(Cl)c(Cl)c2)cc1)O3 (stereo partly shown) 51
